Here is a set of compounds with reported pIC50 for Cytochrome P450 1A2 (Homo sapiens, UniProt P05177), compiled from the literature.
pIC50: −log10 of the molar value.

Field: example entries. Status: answers known.
{"columns": ["COMPOUND", "pIC50"],
 "data": [
  ["COC(=O)N[C@H](C(=O)N1CCC[C@H]1c1nc(Br)c(-c2ccc(N=[N+]=[N-])cc2)[nH]1)C(C)C", 4.09],
  ["COc1cc(OC)c(Cl)c(NC(=O)N(C)c2cc(Nc3cccc(CN(C)C)c3)ncn2)c1Cl", "< 5.00"],
  ["CC(C)c1noc(C2CCN(c3ncnc4c(-c5ccc(S(C)(=O)=O)cc5)csc34)CC2)n1", "< 4.30"],
  ["CC(C)(C)Cc1noc2cc(Nc3n[nH]c4nccnc34)ccc12", 5.49],
  ["O=C1CCCN1Cc1ccc(-n2nc(C(F)(F)F)c3c2CCOC3)cc1", "< 5.10"],
  ["Cc1cccc(-c2[nH]c(NCc3cccc(F)c3F)nc2-c2ccc3[nH]ncc3c2)n1", "< 5.00"]
]}

Exercise: Fetch value of pIC50 on Cytochrome P450 1A2 (Homo sapiens, UniProt P05177) for COc1ccc(OC)c(/C=C/c2ccc(OC)cc2OC)c1 .
Solution: 6.52

Exercise: Fetch value of pIC50 on Cytochrome P450 1A2 (Homo sapiens, UniProt P05177) for CC(C)NCC(O)COc1cccc2ccccc12 (centres undefined) .
Solution: < 5.00

Exercise: Fetch value of pIC50 on Cytochrome P450 1A2 (Homo sapiens, UniProt P05177) for CCCN(C)C(=O)OCc1c(-c2ccc(O[C@H]3CCC[C@H](C(=O)O)C3)c(C)n2)nnn1C .
Solution: < 4.40

---

# SYSTEM: Cytochrome P450 1A2 (Homo sapiens, UniProt P05177)
# Sequence (P05177 whole entry): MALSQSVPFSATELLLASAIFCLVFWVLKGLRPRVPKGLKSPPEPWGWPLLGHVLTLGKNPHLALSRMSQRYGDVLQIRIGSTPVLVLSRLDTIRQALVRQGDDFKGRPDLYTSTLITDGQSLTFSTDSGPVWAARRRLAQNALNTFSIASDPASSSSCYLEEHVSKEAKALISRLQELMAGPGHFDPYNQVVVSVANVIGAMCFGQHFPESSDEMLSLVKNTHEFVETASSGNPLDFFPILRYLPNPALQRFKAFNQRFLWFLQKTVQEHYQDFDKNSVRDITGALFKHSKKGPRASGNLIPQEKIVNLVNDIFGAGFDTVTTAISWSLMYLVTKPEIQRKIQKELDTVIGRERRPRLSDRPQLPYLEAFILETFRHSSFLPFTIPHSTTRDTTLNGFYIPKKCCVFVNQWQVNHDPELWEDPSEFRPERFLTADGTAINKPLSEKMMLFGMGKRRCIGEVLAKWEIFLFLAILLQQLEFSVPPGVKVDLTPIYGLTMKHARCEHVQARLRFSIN
Here is a set of molecules with reported IC50 for Cytochrome P450 1A2 (Homo sapiens, UniProt P05177), compiled from the literature.

Field: example entries. Status: answers known.
{"columns": ["MOLECULE", "IC50"],
 "data": [
  ["C[C@H]1SC(N)=N[C@@]2(c3ccc(F)cc3F)CO[C@@H](c3cnn(C)c3)C[C@@H]12", "> 30 µM"],
  ["CN1CCN(c2ccc(Nc3ncc4ccc(-c5ccccc5N(C)S(C)(=O)=O)n4n3)cc2)CC1", "> 30 µM"],
  ["CCOC1(c2ccc(Br)cc2)SC=C(C)n2c1noc2=O (centres undefined)", "2.9 µM"],
  ["Cc1coc([C@H]2C[C@H]3[C@@H](C)SC(N)=N[C@@]3(c3ccc(F)cc3F)CO2)n1", "> 30 µM"],
  ["O=c1[nH]c([C@@H]2CCCN2)nc2c1oc1ccc(Cl)cc12", "6.9 µM"],
  ["Nc1nc2cc(-c3ccc4ncc(N5C[C@@H]6OCCO[C@@H]6C5)nc4c3)ccc2o1", "> 10 µM"],
  ["CN(C)C(=O)c1ccc(N(Cc2ccc(Br)o2)C(=O)c2ccc(O)cc2O)cc1", "> 20 µM"],
  ["COc1ccc(OC)c2c1c(OC)cc1c(=O)cc(-c3ccccc3F)oc12", "0.0221 µM"]
]}

Exercise: State its IC50: c1ccc(-n2cnc3ccc(OCc4ccc5ccccc5n4)cc32)cc1
Solution: 0.38 µM

Exercise: State its IC50: COc1cncc(NC(C(=O)c2c[nH]c3ccccc23)c2ccccc2)c1 (centres undefined)
Solution: 2.8 µM

Exercise: State its IC50: CCN[C@@H]1CCC=C(c2ccc(F)cc2)[C@H]1COc1cc(F)c(S(=O)(=O)Nc2cscn2)cc1Cl.Cl
Solution: > 50 µM

Exercise: State its IC50: CCc1nc(-c2ccc3c(c2)CC[C@H]3NC(=O)c2cnn(C)c2)no1
Solution: > 100 µM

Exercise: State its IC50: Cc1cc2c(F)c(Oc3ncnn4cc(OC[C@@H](C)O)c(C)c34)ccc2[nH]1
Solution: > 40 µM

Exercise: State its IC50: Cc1cc([C@H]2C[C@H]3[C@@H](CF)SC(N)=N[C@@]3(c3ccc(F)cc3F)CO2)on1
Solution: > 30 µM

Exercise: State its IC50: Cl.N[C@@H]1CCC=C(c2ccc(F)cc2)[C@H]1CSc1cc(F)c(S(=O)(=O)Nc2nccs2)cc1Cl
Solution: > 50 µM

Exercise: State its IC50: Cc1c(C(=O)NCCCN2CCN(c3cccc(Cl)c3Cl)CC2)cc(-c2ccccc2)n1C
Solution: > 20 µM

Exercise: State its IC50: C=CC(=O)N[C@H]1COC[C@H]1Nc1ncc(OCc2c(F)c(OC)cc(OC)c2F)cn1
Solution: > 50 µM

Exercise: State its IC50: CC(C)c1nc(CN(C)C(=O)N[C@H](C(=O)N(CCCCN(Cc2ccccc2)C(=O)OCc2cncs2)Cc2ccccc2)C(C)C)cs1
Solution: > 25 µM

Exercise: State its IC50: Cc1cc(N2CC[C@@H](N3CCC[C@H]3C)C2)ccc1NC(=O)c1cc(F)ccc1C
Solution: > 30 µM
